# assayed-target: Urokinase-type plasminogen activator (Homo sapiens)
Rule: measured Ki below 5 µM gets rule met; anything equal to or greater than 5 µM gets rule not met.

Problem: Please indicate whether the reported Ki of N=C(N)Nc1ncccn1 is strictly below 5 µM.
Solution: rule not met

Problem: For the compound NC(N)=Nc1ncc(Cl)cc1Cl , is Ki under 5 µM?
Solution: rule not met

Problem: Identify whether the compound Cc1ccnc(NC(=N)N)c1 records Ki below 5 µM.
Solution: rule not met

Problem: Input NC(N)=Nc1ncc(Br)cc1Cl ; condition: Ki strictly below 5 µM. Does it hold?
Solution: rule met

Problem: State whether 5 µM exceeds Ki recorded for N=C(N)Nc1ccc(Br)cn1 .
Solution: rule met

// data source = ChEMBL document CHEMBL1136034
